Where do the numbers come from? From ChEMBL document CHEMBL1649208.

Molecular target: Telomere resolvase ResT (Borrelia burgdorferi (strain ATCC 35210 / B31 / CIP 102532 / DSM4680))
Sequence (O50979 whole entry): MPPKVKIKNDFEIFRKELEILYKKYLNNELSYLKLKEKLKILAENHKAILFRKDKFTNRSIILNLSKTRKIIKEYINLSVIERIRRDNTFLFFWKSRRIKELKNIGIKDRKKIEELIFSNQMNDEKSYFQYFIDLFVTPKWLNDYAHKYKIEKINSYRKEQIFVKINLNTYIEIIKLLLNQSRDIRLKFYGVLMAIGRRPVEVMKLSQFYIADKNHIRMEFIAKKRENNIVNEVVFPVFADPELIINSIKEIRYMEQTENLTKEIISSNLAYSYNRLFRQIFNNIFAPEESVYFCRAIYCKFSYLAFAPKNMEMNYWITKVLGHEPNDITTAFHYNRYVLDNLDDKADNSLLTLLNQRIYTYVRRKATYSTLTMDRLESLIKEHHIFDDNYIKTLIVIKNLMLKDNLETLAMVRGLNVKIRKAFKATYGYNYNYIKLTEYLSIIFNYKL
Experiment: Inhibition of Borrelia burgdorferi telomere resolvase by gel-based telomere resolution assay
pIC50: −log10 of the molar value.
quantity: pIC50

Here are 2 compounds together with their reported answers.
Query: I am curious: what pIC50 value has been reported for COc1cc(O)c2c(c1)oc(=O)c1c3cc(O)c(O)cc3oc21 [WEDELOLACTONE] ?
Result: 5.06

Query: I am curious: what pIC50 value has been reported for `O=C(O)c1ccc2c3c(cccc13)C(=O)N(c1ccc(-c3nc4ccc(N5C(=O)c6cccc7c(C(=O)O)ccc(c67)C5=O)cc4[nH]3)cc1)C2=O` ?
Result: 5.50

A: O=C(O)CCCCCCCCCCCCC1C=CCC1 (stereo not given)
B: O=C(O)c1ccc(-c2nc(-c3ccc(-c4ccccc4)cc3)c(-c3ccc(-c4ccccc4)cc3)[nH]2)cc1
Query: Of A and B , which shows the smaller pIC50 value? Answer by stating the label of the chosen item.
Result: B

* * *

Biological target: Telomere resolvase ResT (Borrelia burgdorferi (strain ATCC 35210 / B31 / CIP 102532 / DSM4680)) (UniProt O50979)
Sequence (whole entry): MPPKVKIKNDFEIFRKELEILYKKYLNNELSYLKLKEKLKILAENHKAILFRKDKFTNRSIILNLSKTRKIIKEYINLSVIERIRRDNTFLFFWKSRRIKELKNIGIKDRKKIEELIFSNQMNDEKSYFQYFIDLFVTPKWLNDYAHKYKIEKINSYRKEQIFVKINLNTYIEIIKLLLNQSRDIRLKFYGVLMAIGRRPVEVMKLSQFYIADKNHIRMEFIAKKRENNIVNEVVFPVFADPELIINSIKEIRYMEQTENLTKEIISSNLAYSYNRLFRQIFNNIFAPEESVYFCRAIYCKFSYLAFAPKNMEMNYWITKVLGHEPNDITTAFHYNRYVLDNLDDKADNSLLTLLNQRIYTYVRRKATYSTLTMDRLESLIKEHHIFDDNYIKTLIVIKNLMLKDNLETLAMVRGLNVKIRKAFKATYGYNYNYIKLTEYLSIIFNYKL
Assay: Inhibition of Borrelia burgdorferi telomere resolvase assessed as DNA cleavage at 10 uM
Details: Borreliella burgdorferi
quantity: % cleavage relative to control (%)

Here are 2 compounds together with their reported answers.
Query: I am curious: what % cleavage relative to control value has been reported for `O=C(O)c1ccc2c3c(cccc13)C(=O)N(c1ccc(-c3nc4ccc(N5C(=O)c6cccc7c(C(=O)O)ccc(c67)C5=O)cc4[nH]3)cc1)C2=O` ?
Result: 65

Query: I am curious: what % cleavage relative to control value has been reported for `C[C@H](CCC(=O)O)[C@H]1CC[C@H]2[C@@H]3CC[C@@H]4CCCC[C@]4(C)[C@H]3CC[C@@]12C` ?
Result: 79

A: O=C(O)CCCCCCCCCCCCC1C=CCC1 (centres undefined)
B: O=C(O)c1ccc(-c2nc(-c3ccc(-c4ccccc4)cc3)c(-c3ccc(-c4ccccc4)cc3)[nH]2)cc1
Query: Of A and B , which shows the smaller % cleavage relative to control value? Answer by stating the label of the chosen item.
Result: B
